- assay_system: ATP-citrate synthase (Rattus norvegicus)
- Sequence (P16638 whole entry): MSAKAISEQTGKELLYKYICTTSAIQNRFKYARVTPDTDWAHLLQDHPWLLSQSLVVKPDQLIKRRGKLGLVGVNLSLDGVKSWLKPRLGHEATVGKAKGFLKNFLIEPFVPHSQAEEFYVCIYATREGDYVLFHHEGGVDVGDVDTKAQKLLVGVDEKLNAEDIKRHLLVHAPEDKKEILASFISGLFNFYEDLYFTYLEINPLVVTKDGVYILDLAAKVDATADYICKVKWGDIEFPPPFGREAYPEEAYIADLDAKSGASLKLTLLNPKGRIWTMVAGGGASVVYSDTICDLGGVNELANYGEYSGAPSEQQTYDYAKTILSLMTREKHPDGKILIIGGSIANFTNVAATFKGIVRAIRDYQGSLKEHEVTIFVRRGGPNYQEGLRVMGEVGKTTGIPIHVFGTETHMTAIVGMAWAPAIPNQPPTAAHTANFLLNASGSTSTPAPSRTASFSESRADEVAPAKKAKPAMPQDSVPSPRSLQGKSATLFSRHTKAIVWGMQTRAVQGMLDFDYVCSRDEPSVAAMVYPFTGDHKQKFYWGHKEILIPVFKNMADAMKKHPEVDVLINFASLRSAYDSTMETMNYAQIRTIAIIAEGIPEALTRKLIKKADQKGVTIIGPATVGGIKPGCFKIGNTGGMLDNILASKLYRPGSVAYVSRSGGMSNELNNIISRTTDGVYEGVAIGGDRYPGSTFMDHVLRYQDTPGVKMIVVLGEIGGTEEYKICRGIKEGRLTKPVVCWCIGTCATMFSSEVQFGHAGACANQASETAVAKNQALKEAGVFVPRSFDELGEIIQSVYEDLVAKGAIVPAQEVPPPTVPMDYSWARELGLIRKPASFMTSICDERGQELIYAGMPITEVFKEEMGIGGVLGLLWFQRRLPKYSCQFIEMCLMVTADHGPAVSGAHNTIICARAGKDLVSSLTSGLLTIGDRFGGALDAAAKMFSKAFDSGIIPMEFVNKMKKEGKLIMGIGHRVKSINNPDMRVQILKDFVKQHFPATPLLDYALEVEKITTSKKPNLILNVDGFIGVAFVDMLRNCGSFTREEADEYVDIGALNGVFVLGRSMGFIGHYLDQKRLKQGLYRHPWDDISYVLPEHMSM
pKi: −log10 of the molar value.
value_type: pKi

[[record]]
molecule = "C[S+](=N)([O-])C[C@@](O)(CC(=O)O)C(=O)O (stereo in doubt; 12b)"
recorded_result = "< 2.00"

